Provenance of the data: patent US20030045680A1

Molecular target: T1, glutathione S-transferase/human androgen receptor DNA binding domain (amino acids 505-635) (human, UniProt P10275 505-635)
T1 construct: Fusion protein obtained from Dr. Steven Balk; also called GST-DBD; not shown: glutathione S-transferase fusion partner
T1 sequence (looked up): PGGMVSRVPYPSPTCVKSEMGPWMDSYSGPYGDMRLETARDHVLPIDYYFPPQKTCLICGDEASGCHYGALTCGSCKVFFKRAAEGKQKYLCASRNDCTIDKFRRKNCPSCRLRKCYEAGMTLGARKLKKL
Test: ECL competition binding assay (IGEN M8): peptide against GST-DBD binding to biotinylated ARE oligonucleotide;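 further: incubation in phosphate-buffered saline pH 7.2 with poly dI/dC, 200 ng GST-DBD, 3 ng oligonucleotide and 30 ng ruthenium-labeled antibody in 0.2 ml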
Criterion: IC50 strictly less than 8 µM. Met: met. Not met: not met.

1. Ac-LTIASSSDEE-NH2 (also called Cmpd No. 19) [Ac-LTIASSSDEE-NH2] ... met
2. Ac-SVPFHHTPVS-NH2 (synthetic peptide of the series based on amino acids 423-548 of ARIP3; also called Cmpd No. 13) [Ac-SVPFHHTPVS-NH2] ... not met
3. Ac-TIESSSD-NH2 (truncation of Cmpd 10; also called Cmpd No. 29) [Ac-TIESSSD-NH2] ... not met
4. Ac-FMSETQSSPTK-NH2 (synthetic peptide of the series based on amino acids 423-548 of ARIP3; also called Cmpd No. 11) [Ac-FMSETQSSPTK-NH2] ... met
5. Ac-LTIESSSDEE-NH2 (synthetic peptide of the series based on amino acids 423-548 of ARIP3; also called Cmpd No. 10) [Ac-LTIESSSDEE-NH2] ... met

Okay, next one:
Bench note: check whether Ac-LTIESASDEE-NH2 (also called Cmpd No. 21) [Ac-LTIESASDEE-NH2] shows IC50 below 8 µM
met
